Reported EC50 values for a set of binders
- TARGET OR TEST SYSTEM: T1, human CD20 on Raji B lymphoma cells (human, UniProt P11836 1-297)
- T1 construct: whole, on cells; also called hCD20
- T1 sequence (looked up): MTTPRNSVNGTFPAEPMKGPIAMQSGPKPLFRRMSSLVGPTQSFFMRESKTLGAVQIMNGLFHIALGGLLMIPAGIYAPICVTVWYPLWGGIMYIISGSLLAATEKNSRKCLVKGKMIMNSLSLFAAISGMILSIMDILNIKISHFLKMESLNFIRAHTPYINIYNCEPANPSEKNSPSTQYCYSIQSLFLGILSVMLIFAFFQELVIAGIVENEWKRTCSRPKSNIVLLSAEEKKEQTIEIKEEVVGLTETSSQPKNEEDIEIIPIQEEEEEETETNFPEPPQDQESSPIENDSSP
- ASSAY TEXT: flow cytometry on Raji cells, indirect immunofluorescence (Atto 488-labeled anti-human Fc secondary Ab), MFI against concentration, 5PL fit
OBSERVATION TYPE: EC50 (µg/mL)

* AC1 (chicken-derived anti-hCD20 mAb, chicken-human chimeric) (antibody, human IgG1, V domains shown, Atto 488 NHS-ester label on lysines in the direct immunofluorescence and mCD20 assays (positions not defined), Chicken VH fused to human CH1 and CH2-CH3 of human IgG1; chicken VL fused to human kappa constant domain; made in Expi293F cells; also called chAC1) VH: AVTLDESGGGLQTPGGGLSLVCKASGFDFSSYAMVWVRQAPGKGLEYVGEITNYAAGSGTWYGAAVKGRATISRDNGQSTVRLQLNNLRAEDTATYYCAKGPISGSIGYLSSIDAWGHGTEVIVSS VL: ALTQPSSVSANPGETVKITCSGGSSRYGYGWYQQKSPGSAPVTVIYWNDKRPSDIPSRFSGSKSGSTGTLTITGVRAEDEAVYYCGNYDNNDPAFGAGTTLTVL | 1.8
* AC11 (chicken-derived anti-hCD20 mAb, chicken-human chimeric) (antibody, human IgG1, V domains shown, Atto 488 NHS-ester label on lysines in the direct immunofluorescence and mCD20 assays (positions not defined), Chicken VH fused to human CH1 and CH2-CH3 of human IgG1; chicken VL fused to human kappa constant domain; made in Expi293F cells; also called chAC11; parental AC11) VH: AVTLDESGGGLQTPGGALSLVCKASGFDFSSSYINWVRQAPGKGLEYVAQINKDGGGSWYAPVVKGRATISRDNGQSTVRLQLSNLRAEDTGIYFCAKNADSGCVGVGGCIDTWGHGTEVIVSS VL: ALTQPSSVSANPGETVKITCSGGSYYYGGNYYYGWYQQKSPGSAPVTLIYNNNKRPSDIPSRFSGSTSGSTGTLTITGVQADDEAVYYCGGYDSSYVAIFGAGTTLTVL | 3.2
* Rituximab (antibody, V domains shown) VH: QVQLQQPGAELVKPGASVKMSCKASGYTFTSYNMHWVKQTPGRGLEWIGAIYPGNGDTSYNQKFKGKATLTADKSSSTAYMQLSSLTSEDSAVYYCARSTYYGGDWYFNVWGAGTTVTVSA VL: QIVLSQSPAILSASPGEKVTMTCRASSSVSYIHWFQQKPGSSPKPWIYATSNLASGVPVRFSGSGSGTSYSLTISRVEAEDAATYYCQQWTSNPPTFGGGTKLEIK | 4.5
* ACR7 (chicken-derived anti-hCD20 mAb, chicken-human chimeric) (antibody, human IgG1, V domains shown, Atto 488 NHS-ester label on lysines in the direct immunofluorescence and mCD20 assays (positions not defined), Chicken VH fused to human CH1 and CH2-CH3 of human IgG1; chicken VL fused to human kappa constant domain; made in Expi293F cells; also called chACR7) VH: AVTLDESGGGLQTPGGALSLVCKASGFTFNSNGMGWVRQAPGKGLEWVAGIHSSGRYTYYGTAVKGRATISRDNGQSTVRLQLNDLRAEDTATYYCAKNADSAYGYWYAGSIDAWGHGTEVIVSS VL: ALTQPSSVSANLGGTVEITCSGGYSSYGYSWHQQKSPASAPVTLIYNNNNRPSDIPSRFSGSASGSTATLTITGVQAEDEAVYYCAFTDYSSLAGVFGAGTTLTVL | 5.9
* ACR8 (chicken-derived anti-hCD20 mAb, chicken-human chimeric) (antibody, human IgG1, V domains shown, Atto 488 NHS-ester label on lysines in the direct immunofluorescence and mCD20 assays (positions not defined), Chicken VH fused to human CH1 and CH2-CH3 of human IgG1; chicken VL fused to human kappa constant domain; made in Expi293F cells; also called chACR8) VH: AVTLDESGGGLQTPGGALSLVCKASGFSFDRHGMFWVRQAPGKGLEWVAGIRSTGSYPKYGPAVKGRATISRDNGQSTVRLQLNNLRAEDTARYFCVRNVYIGDYDGDSIDAWGHGTEVIVSS VL: ALTQPSSVSANLGGTVEITCSGSSSGYGSYYGWYQQKSPGSAPVTVIYENTNRPSNIPSRFSGSESGSTATLTITGVQAEDEAVYFCGSADDSGNSAIFGAGTTLTVL | 2
